# key: entry, value: remaining at 1 µM
assay: in vitro; details: human, microsomes
Readout Type: remaining at 1 µM (%)

In [3]: df
Out[3]:
                           substance_smiles       readout_type  unit_of_measure  recorded_measurement
0  COc1ccc(N(C)S(=O)(=O)c2cccc(C(=O)Nc3ccc(C#N)cc3)c2)cc1  remaining at 1 µM                %                     2
1  CC(=O)c1ccc(N(C)S(=O)(=O)c2cccc(C(=O)Nc3ccc(Cl)cn3)c2)cc1  remaining at 1 µM                %                    12
2  CC(=O)c1ccc(N(C)S(=O)(=O)c2cccc(C(=O)Nc3ccc(Cl)cc3)c2)cc1  remaining at 1 µM                %                    12
3  CN(c1ccc(F)cc1)S(=O)(=O)c1cccc(C(=O)Nc2ccc(C#N)cc2)c1  remaining at 1 µM                %                    16
4  CN(c1ccc(Cl)cc1)S(=O)(=O)c1cccc(C(=O)Nc2ccc(C#N)cn2)c1  remaining at 1 µM                %                     2
5  CN(c1ccc(Cl)cc1)S(=O)(=O)c1cccc(C(=O)Nc2ccc(S(C)(=O)=O)cc2)c1  remaining at 1 µM                %                     2
